- test summary: Half life in nude mouse at 5 umol/kg, iv
- Type: ADME, organism-based
- experimental setup: in vivo
metric: half-life (h)
Answers are plain numbers, in h.

Please give the measured half-life for this compound: CN[C@H]1CCN(C(=O)c2ccc(Nc3ncc(F)c(-c4cnc(C)n4C(C)C)n3)cc2)C1
3.4

----------
- test summary: Clearance in Han/Wistar rat at 2.5 umol/kg, iv
- Assay type: ADME, organism-based
- experimental setup: in vivo
metric: clearance (L/h/kg)
Give bare numbers, in L/h/kg.

Recorded clearance for CN[C@H]1CCN(C(=O)c2ccc(Nc3ncc(F)c(-c4cnc(C)n4C(C)C)n3)cc2)C1 , please?
1.8

----------
- test summary: AUC in rat at 1 umol/kg, iv
- Format: ADME, organism-based
- experimental setup: plasma
metric: AUC (µM·h)
Numbers only, in µM·h.

Please give the measured AUC for this compound: Cc1ncc(-c2nc(Nc3ccc(C(=O)N4CCCN(C)CC4)cc3)ncc2F)n1C(C)C
0.3

----------
- test summary: Half life in Han/Wistar rat at 2.5 umol/kg, iv
- Assay type: ADME, organism-based
- experimental setup: in vivo
metric: half-life (h)
Numbers only, in h.

Sample CN[C@H]1CCN(C(=O)c2ccc(Nc3ncc(F)c(-c4cnc(C)n4C(C)C)n3)cc2)C1 — what was its half-life?
3.6

----------
- test summary: Hydrolytic stability assessed as half life at pH 4 to 10
- Assay type: physicochemical
- experimental setup: buffer
metric: half-life

# lookup: half-life of CN[C@H]1CCN(C(=O)c2ccc(Nc3ncc(F)c(-c4cnc(C)n4C(C)C)n3)cc2)C1
> 100 days

----------
- target entity: Voltage-gated inwardly rectifying potassium channel KCNH2 (Homo sapiens)
- Sequence (Q12809 whole entry): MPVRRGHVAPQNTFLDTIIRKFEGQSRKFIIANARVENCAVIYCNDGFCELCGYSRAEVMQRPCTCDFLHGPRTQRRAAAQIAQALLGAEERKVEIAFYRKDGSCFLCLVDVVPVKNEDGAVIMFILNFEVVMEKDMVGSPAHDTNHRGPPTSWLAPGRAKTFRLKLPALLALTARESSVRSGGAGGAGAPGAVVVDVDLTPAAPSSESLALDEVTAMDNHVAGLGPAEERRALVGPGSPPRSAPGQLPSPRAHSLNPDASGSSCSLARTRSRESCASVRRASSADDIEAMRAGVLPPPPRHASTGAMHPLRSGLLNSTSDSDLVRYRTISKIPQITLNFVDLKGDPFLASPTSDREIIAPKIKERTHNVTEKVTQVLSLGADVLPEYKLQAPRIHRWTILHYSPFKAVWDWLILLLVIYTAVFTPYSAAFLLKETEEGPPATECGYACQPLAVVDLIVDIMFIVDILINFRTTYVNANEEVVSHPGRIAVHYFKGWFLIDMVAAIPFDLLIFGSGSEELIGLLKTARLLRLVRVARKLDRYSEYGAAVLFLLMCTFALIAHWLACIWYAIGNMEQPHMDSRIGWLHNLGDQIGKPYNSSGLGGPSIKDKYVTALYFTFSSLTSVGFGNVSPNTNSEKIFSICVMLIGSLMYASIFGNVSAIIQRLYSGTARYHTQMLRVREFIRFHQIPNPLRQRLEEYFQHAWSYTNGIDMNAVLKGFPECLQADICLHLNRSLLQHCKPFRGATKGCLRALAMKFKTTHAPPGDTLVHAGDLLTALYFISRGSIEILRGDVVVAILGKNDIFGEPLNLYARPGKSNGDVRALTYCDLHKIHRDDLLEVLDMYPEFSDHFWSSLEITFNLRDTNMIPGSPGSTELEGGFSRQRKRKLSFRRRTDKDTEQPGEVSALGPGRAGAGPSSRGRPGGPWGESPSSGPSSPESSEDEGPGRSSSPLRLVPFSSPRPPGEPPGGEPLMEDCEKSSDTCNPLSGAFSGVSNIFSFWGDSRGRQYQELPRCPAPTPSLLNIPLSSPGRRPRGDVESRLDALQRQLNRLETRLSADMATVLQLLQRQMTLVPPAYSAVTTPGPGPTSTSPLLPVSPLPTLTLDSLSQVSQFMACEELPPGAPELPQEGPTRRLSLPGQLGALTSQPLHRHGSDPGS
- test summary: Inhibition of human ERG
Please provide measured Activity for the entries that follow.

Worked cases, Activity given:
test smiles | target entity | Activity
Cc1ncc(-c2nc(Nc3ccc(C(=O)NCCN(C)C)c(F)c3)ncc2F)n1C(C)C | Voltage-gated inwardly rectifying potassium channel KCNH2 (Homo sapiens) | > 65 µM
CN[C@H]1CCN(C(=O)c2ccc(Nc3ncc(F)c(-c4cnc(C)n4C(C)C)n3)cc2)C1 | Voltage-gated inwardly rectifying potassium channel KCNH2 (Homo sapiens) | 95 µM
Cc1ncc(-c2nc(Nc3ccc(C(=O)N4CC[C@H](N(C)C)C4)cc3)ncc2F)n1C(C)C | Voltage-gated inwardly rectifying potassium channel KCNH2 (Homo sapiens) | 33 µM

Note: attention shifts to another entry.
I am curious: what Activity value has been reported for Cc1ncc(-c2nc(Nc3ccc(C(=O)N4CCCN(C)CC4)cc3)ncc2F)n1C(C)C ?
> 32 µM

----------
Measured IC50 (UniProt:P24941)
One number for each entry, in nM.

Would you please look over these solved cases?
test smiles | unit symbol | IC50
CN[C@H]1CCN(C(=O)c2ccc(Nc3ncc(F)c(-c4cnc(C)n4C(C)C)n3)cc2)C1 | nM | 2
Cc1ncc(-c2ccnc(Nc3ccc(C(=O)N4CCN(C)CC4)cc3)n2)n1C(C)C | nM | 9
Cc1ncc(-c2nc(Nc3ccc(C(=O)N4CCCN(C)CC4)cc3)ncc2F)n1C(C)C | nM | 2
Cc1ncc(-c2nc(Nc3ccc(C(=O)N4CCN(C)CC4)cc3)ncc2F)n1C(C)C | nM | 18
Cc1ncc(-c2nc(Nc3ccc(C(=O)NC4CCN(C)CC4)c(F)c3)ncc2F)n1C(C)C | nM | 1

In the following, a different compound is considered.
Fill in: IC50 of Cc1ncc(-c2ccnc(Nc3ccc(C(=O)NC4CCN(C)CC4)c(F)c3)n2)n1C(C)C is ___
11
